Biological target: T1, hCD137 (FXa digested) (human, UniProt Q07011 24-186)
T1 construct: Factor Xa digestion and Protein A removed the Fc; also called human CD137 extracellular domain
T1 sequence (Q07011 other isoform, or with tags, fused parts or gaps limits assumed): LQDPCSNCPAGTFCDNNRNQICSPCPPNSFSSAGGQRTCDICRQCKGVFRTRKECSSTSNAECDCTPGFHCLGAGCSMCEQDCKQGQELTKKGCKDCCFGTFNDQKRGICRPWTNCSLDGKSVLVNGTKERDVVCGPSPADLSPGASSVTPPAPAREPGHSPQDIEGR
Assay: SPR, 1 mM ATP
Below: a set of entries, each annotated with reported binding amount.
Please give a number only; it is taken to be in RU.

Example entries begin here.
>>> assay_result("dBBAT119-P253 (antibody, human IgG1, lambda, V domains shown, also called dBBAT119H-P253/dBBAT119L-LamLib) VH: EVQLVESGGDLVKPGGGLRLSCAASGFTFSTFTMNWVRQAPGKGLEWVSSISSRSNYKSYADSVKGRFTISRDNAKNSLYLQMNSLRAEDTAVYYCARYGAKNFMNWVFDYWGQGTLVTVSS VL: QSALTQPPSASGSPGQTVTISCTGTSTDVGFYNYVSWYQQHPGKAPKLMIYYTSKRPSGVPDRFSGSKSGNTASLTVSGLQAEDEADYFCSSYRYDHQVSFGGGTKLTVLG")
45.7
>>> assay_result("dBBAT042-P253 (antibody, human IgG1, lambda, V domains shown) VH: EVQLVESGGDLVKPGGGLRLSCAASGFTFSSHTMNWVRQAPGKGLEWISSISSRSNYKSYADSVKGRFTISRDNAKNSLYLQMNSLRAEDTAVYYCARYGHKNMHNWVFDYWGQGTLVTVSS VL: QSALTQPPSASGSPGQTVTISCTGTSSDVGFYNYVSWYQQHPGKAPKLMIYEVSKRPSGVPDRFSGSKSGNTASLTVSGLQAEDEADYFCSTYRYDQNVAFGGGTKLTVLG")
11.7

Field: next binder
Using the record for dBBAT091-P253 (antibody, human IgG1, lambda, V domains shown) VH: EVQLVESGGDLVKPGGGLRLSCAASGFTFSSYTMNWVRQAPGKGLEWVSSISSRSNYIDYADSVKGRFTISRDNAKNSLYLQMNSLRAEDTAVYYCARFGKKNDMNWVFDYWGQGTLVTVSS VL: QSALTQPPSASGSPGQTVTISCTGTSTDVGFYNYVSWYQQHPGKAPKLMIYEGSKRPSGVPDRFSGSKSGNTASLTVSGLQAEDEADYFCSSYEYTESVLFGGGTKLTVLG , report its binding amount.
6.2
